Origin of measurements: the supplement of paper PMC8728848

- target.system: Gal(a1-3)Gal(b1-4)GlcNAc
- assay.comment: glycan array binding signal (z-score within array); higher = stronger binding
- assay.context: glycan notation: IUPAC condensed, linker removed
Shown is part of a subset that was picked to be rich in the strongest signals.
Reported glycan array binding signal (z-score) values for a set of binders

binder | glycan array binding signal (z-score)
Epa22 (Candida glabrata) (protein) MGSSHHHHHHSSGLVPRGSHMKRALSSQNPFGYPIGCSPQSTNVIPGLTMELYSYPIVSGTPPNCYDASYVDPEYPRTGYLKRKMIGKSTGVTGSLNYKFSVEKACMVKYGNLPAGYNYNEPLTVSNFTMLLYGYFKPQTSGIHTFFVNADDLLYINFGAGNAFDCCKREDSKFKLGEYVAYDIWHVDSSKNKVSLNLEKDVYYPIRMFFNNIGKDSSLDLSFSVNGAVEHITDFSGYLYSVPDQPDACPAPIGYDTTCK | 5.2
SpnanA (Streptococcus pneumoniae), P62575 (protein) MVIEKEDVETNASNGQRVDLSSELDKLKKLENATVHMEFKPDAKAPAFYNLFSVSSATKKDEYFTMAVYNNTATLEGRGSDGKQFYNNYNDAPLKVKPGQWNSVTFTVEKPTAELPKGRVRLYVNGVLSRTSLRSGNFIKDMPDVTHVQIGATKRANNTVWGSNLQIRNLTVYNRALTPEEVQKRS | -0.256
SAG3 (Toxoplasma gondii), Q9BJ39 (protein) MQLWRRRAAGPASLGRQSLPLGCFFAAFGLCVLSAILGTGERGLFVAAGNSRRKITYFGTLTQKAPNWYRCSSTRAKEEVVGHVTLNKEHPDMTIECVDDGLGGEFLPLEGARSSYPRVCHIDAKDQDDCERNRGFLTDYIPGAKQYWYKIEKVEQNGEQSVLYKFTVPWILLPPAKQRYKVGCRYPNHEYCFVEVTVEPTPPMVEGKRVTCGYSESGPVNLEVDLSKNANFIEIRCGEQHHPQPSTYTLQYCSGDSVDPQKCSPQSLTNIFYDYSSSWWKGKLNGPDGATLTIPPGGFPEEDKSFLVGCSLTVDGPPFCNVKVRVAGNPRKWERGGGGHPGSGGLQPGTDGETQAGTGSSAGASSRMASVALAFLLGLLVHVAA | -0.223
SRS2 (Toxoplasma gondii), O15695 (protein) MATRASLARQKTGAACLAVLTASPSVVAAKPWKRWVGVSVILASAFAVGVSAGPPYRYEPEKFTCRPKKGILSQWVSLLYQVQHNITFACEEATPVPTTLISEEHGLMVCAENMTPEECEANPAPLSAFLPGATKEWVTGDSVLTGLKISVPESQYPANAKSFRVGCRHNTKTGNTCMLTIHVEPRDPAVERQEARCSYTENSTLPKIFVTKDSNTMTLACGPHGAPMPESYTENYCSTPDTCDEKPFTSVIPGYLSKWFFGDPKSPLGARVRIPPEQIPSSPQINYFGCTGPTEGEGPKYNCTVPVPLGGGDPSEGSRPGGGSGGGKRGGGQGGGGSLAGFDFRQGSARHSLPSRMALSASALLAMTALAY | 0.159
